Where do the numbers come from? From patent US8754038B2.

Target: human CCR10 (Homo sapiens, UniProt P46092)
Construct: expressed in transfected cells
Sequence (P46092 whole entry): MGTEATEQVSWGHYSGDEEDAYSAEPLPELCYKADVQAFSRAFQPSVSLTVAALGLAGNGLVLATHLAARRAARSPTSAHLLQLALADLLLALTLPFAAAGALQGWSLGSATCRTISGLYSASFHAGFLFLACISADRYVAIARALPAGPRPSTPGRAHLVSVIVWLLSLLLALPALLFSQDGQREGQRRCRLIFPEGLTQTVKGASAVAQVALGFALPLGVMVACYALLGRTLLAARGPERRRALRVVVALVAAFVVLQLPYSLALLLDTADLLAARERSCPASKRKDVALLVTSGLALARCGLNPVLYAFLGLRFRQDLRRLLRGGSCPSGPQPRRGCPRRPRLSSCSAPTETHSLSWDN
Assay: Calcium flux assay (CCR10 antagonism, CCL27 as agonist)
Type: cell-based
Settings: CCR10 transfected 300-19 murine pre-B cells; CCL27 30 nM
Numbered stars: 1 amine (or outer) side, 2 acyl side, 3 side chain; on linkers, the order of the positions; unused ones are H or OH. Square brackets hold non-standard residues; d marks the D form. Side chains are listed from the residue outwards. Peptide text beside a SMILES is read from it. * marks the point of attachment. Pro(cis-4-Ph) = O=C(O)[C@@H]1C[C@H](c2ccccc2)CN1; Phe(4-CF3) = N[C@@H](Cc1ccc(C(F)(F)F)cc1)C(=O)O; Trp(5-OH) = N[C@@H](Cc1c[nH]c2ccc(O)cc12)C(=O)O; X7 = O=C([C@H](CCNCc1c[nH]cn1)N[*:1])[*:2]; Oic = O=C(O)[C@@H]1C[C@@H]2CCCC[C@@H]2N1; Thz(5,5-Me2) = CC1(C)SCN[C@@H]1C(=O)O; cisHyp = O=C(O)[C@@H]1C[C@H](O)CN1; Hyp = O=C(O)[C@@H]1C[C@@H](O)CN1; Benzyl(4-Br) = Brc1ccc(C*)cc1; dPip = O=C(O)[C@H]1CCCCN1; Thz = O=C(O)[C@@H]1CSCN1; Ac5c = NC1(C(=O)O)CCCC1; Dab = NCC[C@H](N)C(=O)O; X10 = N#Cc1ccc(C*)cc1; X14 = N#Cc1cccc(C*)c1; X8 = Cn1cncc1CCC(=O)*; CO = O=C([*:1])[*:2]; NHCH2CH2OMe = COCCN*; NHPh = c1ccc(N*)cc1; Bn = c1ccc(C*)cc1
Classification scheme (IC50): interval 1 (below 20 nM), interval 2 (20 nM to below 100 nM), interval 3 (100 nM or more)

Reference set, count: 10
>>> class_assignment("CC1(C)SCN2C(=O)[C@H]3CCCN3C(=O)[C@H](CCCNC(=N)N)NC(=O)[C@H](Cc3c[nH]c4ccccc34)NC(=O)C3(CCCC3)NC(=O)[C@H](Cc3c[nH]c4ccc(O)cc34)NC(=O)[C@@H]21 [Ex. 29] (cyclo([Ac5c]WR[dP][Thz(5,5-Me2)][Trp(5-OH)]))")
"interval 3"
>>> class_assignment("O=C1NC2(CCCC2)C(=O)N[C@@H](Cc2c[nH]c3ccccc23)C(=O)N[C@@H](CCNCc2c[nH]cn2)C(=O)N2CCC[C@@H]2C(=O)N2[C@@H](C[C@@H]3CCCC[C@@H]32)C(=O)N[C@H]1Cc1c[nH]c2ccccc12 [Ex. 106, cyclo(-Trp-Cyp-Trp-Dab(A55)-^DPro-Oic-)] (cyclo([Ac5c]W[X7][dP][Oic]W))")
"interval 1"
>>> class_assignment("NCC[C@@H]1NC(=O)[C@H](Cc2c[nH]c3ccccc23)NC(=O)C2(CCCC2)NC(=O)[C@H](Cc2c[nH]c3ccccc23)NC(=O)[C@@H]2C[C@H](OCc3ccccc3)CN2C(=O)[C@H]2CCCN2C1=O [Ex. 51] (cyclo([Ac5c]W[Dab][dP][cisHyp](Bn)W))")
"interval 3"
>>> class_assignment("Cn1cncc1CCC(=O)NCC[C@@H]1NC(=O)[C@H](Cc2c[nH]c3ccccc23)NC(=O)C2(CCCC2)NC(=O)[C@H](Cc2ccc(C(F)(F)F)cc2)NC(=O)[C@@H]2C[C@@H]3CCCC[C@@H]3N2C(=O)[C@H]2CCCN2C1=O [Ex. 108] (cyclo([Ac5c]W[Dab](X8)[dP][Oic][Phe(4-CF3)]))")
"interval 2"
>>> class_assignment("COCCNC(=O)NCC[C@@H]1NC(=O)[C@H](Cc2c[nH]c3ccccc23)NC(=O)C2(CCCC2)NC(=O)[C@H](Cc2c[nH]c3ccccc23)NC(=O)[C@@H]2C[C@@H]3CCCC[C@@H]3N2C(=O)[C@H]2CCCN2C1=O [Ex. 73] (cyclo([Ac5c]W[Dab]([CO-NHCH2CH2OMe])[dP][Oic]W))")
"interval 2"
>>> class_assignment("N=C(N)NCCC[C@@H]1NC(=O)[C@H](Cc2c[nH]c3ccccc23)NC(=O)C2(CCCC2)NC(=O)[C@H](Cc2c[nH]c3ccccc23)NC(=O)[C@@H]2CSCN2C(=O)[C@H]2CCCN2C1=O [Ex. 5, cyclo(-Trp-Cyp-Trp-Arg-DPro-Thz-)] (cyclo([Ac5c]WR[dP][Thz]W))")
"interval 2"
>>> class_assignment("N#Cc1ccc(CO[C@@H]2C[C@H]3C(=O)N[C@@H](Cc4c[nH]c5ccccc45)C(=O)NC4(CCCC4)C(=O)N[C@@H](Cc4c[nH]c5ccccc45)C(=O)N[C@@H](CCN)C(=O)N4CCC[C@@H]4C(=O)N3C2)cc1 [compound 53] (cyclo([Ac5c]W[Dab][dP][Hyp](X10)W))")
"interval 2"
>>> class_assignment("N#Cc1cccc(CO[C@@H]2C[C@H]3C(=O)N[C@@H](Cc4c[nH]c5ccccc45)C(=O)NC4(CCCC4)C(=O)N[C@@H](Cc4c[nH]c5ccccc45)C(=O)N[C@@H](CCN)C(=O)N4CCC[C@@H]4C(=O)N3C2)c1 [compound 77] (cyclo([Ac5c]W[Dab][dP][Hyp](X14)W))")
"interval 3"
>>> class_assignment("NCC[C@@H]1NC(=O)[C@H](Cc2c[nH]c3ccccc23)NC(=O)C2(CCCC2)NC(=O)[C@H](Cc2c[nH]c3ccccc23)NC(=O)[C@@H]2C[C@@H](OC(=O)Nc3ccccc3)CN2C(=O)[C@H]2CCCN2C1=O [compound 57] (cyclo([Ac5c]W[Dab][dP][Hyp]([CO-NHPh])W))")
"interval 3"
>>> class_assignment("NC(=O)CC[C@@H]1NC(=O)[C@H](Cc2c[nH]c3ccccc23)NC(=O)C2(CCCC2)NC(=O)[C@H](Cc2c[nH]c3ccc(O)cc23)NC(=O)[C@@H]2CSCN2C(=O)[C@H]2CCCN2C1=O [Ex. 7, cyclo(-Trp(5OH)-Cyp-Trp-Gln-^DPro-Thz-)] (cyclo([Trp(5-OH)][Ac5c]WQ[dP][Thz]))")
"interval 3"

Sort into band: NCC[C@@H]1NC(=O)[C@H](Cc2c[nH]c3ccccc23)NC(=O)C2(CCCC2)NC(=O)[C@H](Cc2ccc(C(F)(F)F)cc2)NC(=O)[C@@H]2C[C@H](c3ccccc3)CN2C(=O)[C@H]2CCCCN2C1=O [Ex. 37] (cyclo([Ac5c]W[Dab][dPip][Pro(cis-4-Ph)][Phe(4-CF3)]))
interval 1

Sort into band: NCC[C@@H]1NC(=O)[C@H](Cc2c[nH]c3ccccc23)NC(=O)C2(CCCC2)NC(=O)[C@H](Cc2c[nH]c3ccccc23)NC(=O)[C@@H]2C[C@@H](OCc3ccc(Br)cc3)CN2C(=O)[C@H]2CCCN2C1=O [compound 56] (cyclo([Ac5c]W[Dab][dP][Hyp](Benzyl(4-Br))W))
interval 1
